Measured MEAN CpLDH INHIBITION (%), listed per entry for reference.
Target: recombinant CpLDH protein (Cryptosporidium parvum, UniProt Q9GT92, F198L/K295E/R251K)
Give the value in % but do not write % after it.

Take a look at these entries with their results.
* S=C1Nc2cnc3ccccc3c2SC1c1ccccc1 (stereo not drawn) | -21.66
* C1COCCN1.S=C(S)N1CCOCC1 | -42.22
* COc1ccc(O)c2c(=O)c3c(OC)cc4c(c3oc12)[C@@H]1C=CO[C@@H]1O4 | -31.06
* Cl.Cl.Cl.Cl.NCCCNCCCCNCCCN | -11.66
* N#CCCN(CCC#N)c1ccc(/C=C2\N=C(c3cc([N+](=O)[O-])ccc3Cl)OC2=O)cc1 | -14.05
* COc1c(O[C@@H]2O[C@H](CO)[C@@H](O)[C@H](O)[C@H]2O)cc2c(c1OC)-c1ccc(OC)c(=O)cc1[C@@H](NC(C)=O)CC2 | -5.35
* CNc1nc(N(C)C)nc(N(C)C)n1 | -28.34
* O=C1/C(=C/c2ccccc2)CN(C(=O)/C=C/c2ccccc2)C/C1=C\c1ccccc1 | 0.30

From here, focus on the item given below.
[Q] Write down the reported MEAN CpLDH INHIBITION (%) of CC(C)c1ccc(O)c(=O)cc1 , test system: recombinant CpLDH protein (Cryptosporidium parvum, UniProt Q9GT92, F198L/K295E/R251K).
[A] -40.28

###

System: HCT-8 cells
Test: Compound cytotoxicity assay (WST-1 cell proliferation reagent)
Measured pIC50, listed per entry for reference.
# pIC50 is unitless: minus log10 of the molar concentration; print number only

Take a look at these entries with their results.
• O=[N+]([O-])c1ccc2c(N=Nc3c(O)ccc4ccccc34)c(O)cc(S(=O)(=O)[O-])c2c1.[Na+] [NSC73413] = 3.66
• CCOC(=O)Cc1c(C)c2cc(C(=O)c3ccccc3)c(O)cc2oc1=O [NSC115538] = 3.80
• O=S(=O)([O-])c1cc(N=Nc2cc(S(=O)(=O)[O-])c3ccccc3c2O)ccc1/C=C/c1ccc(N=Nc2cc(S(=O)(=O)[O-])c3ccccc3c2O)cc1S(=O)(=O)[O-].[Na+].[Na+].[Na+].[Na+] [NSC34931] = 4.15
• CC(O)CCC(=O)c1ccoc1 (centres unmarked) [NSC349438] = 4.03
• O=S(=O)(O)c1cc(N=[N+]([O-])c2cc(S(=O)(=O)O)c3ccccc3c2)cc2ccccc12 [NSC37031] = 3.48
• O=C1/C(=C/c2ccccc2)CN(C(=O)/C=C/c2ccccc2)C/C1=C\c1ccccc1 [NSC638634] = 3.81
• O=C([CH-]C(=O)C(F)(F)F)c1ccccc1.O=C([CH-]C(=O)C(F)(F)F)c1ccccc1.O=C([CH-]C(=O)C(F)(F)F)c1ccccc1.O=C([CH-]C(=O)C(F)(F)F)c1ccccc1.[Eu+3].c1ccncc1 [NSC253995] = 4.08
• Cc1cc2c(c3oc(C4(C)OC4C4OC4C)cc(=O)c13)C(=O)c1c(O)c(C3CC(C)(N(C)C)C(O)C(C)O3)cc(C3CC(N(C)C)C(O)C(C)O3)c1C2=O (centres unmarked) [NSC70929] = 3.74
• O=c1oc2cc(O)ccc2c2oc3cc(O)ccc3c12 [NSC22842] = 4.08
• CCOC(C)C(C=NNC(N)=S)=NNC(N)=S (centres unmarked) [NSC82116] = 3.93

[Q] Look at this compound and give its reported pIC50. O=C(CC(=O)C(F)(F)F)c1csc2ccccc12 [NSC80396]
[A] 4.04

[Q] Look at this compound and give its reported pIC50. CC(=O)Nc1ccc(-c2nc3ccccc3s2)cc1 [NSC33006]
[A] 4.06

[Q] Look at this compound and give its reported pIC50. CC1=C(CCC(=O)O)c2cc3nc(cc4[nH]c(cc4C)cc4[nH]c(cc1n2)cc4C)C(C)=C3CCC(=O)O [NSC18298]
[A] 4.09

[Q] Look at this compound and give its reported pIC50. [Cl][Cd][Cl] [NSC51148]
[A] 4.40

###

Target: recombinant CpLDH protein (Cryptosporidium parvum, UniProt Q9GT92, F198L/K295E/R251K)
Tick criterion met if MEAN CpLDH INHIBITION (%) is -30% or greater. Tick criterion not met if MEAN CpLDH INHIBITION (%) is less than -30%.

Please review the entries below; each comes with its answer.
- CCN1/C(=C/C(C)=C/c2sc3ccccc3[n+]2CC)Sc2ccccc21.[I-]: criterion met
- O=c1cnn(C2OC(CO)C(O)C2O)c(=S)[nH]1 (centres unmarked): criterion not met
- CCCC/C=C/C=C/C=C/CCCCCCCC(=O)OCC(COC(=O)CCCCCCC/C=C/C1C=CC(CCCC)C(C(=O)O)C1C(=O)O)OC(=O)CCCCCCC/C=C/C=C/C=C/CCCC.OCCNCO (centres unmarked): criterion met
- O=C1c2ccccc2C(=O)c2sc(Nc3ccc(Cl)cc3)nc21: criterion met
- CC1=NN(C(=O)c2ccncc2)C(=O)C1N=Nc1ccc(F)cc1 (centres unmarked): criterion not met
- COc1ccc2nc(NC(=O)C(=O)CC(=O)c3ccc(Cl)cc3)sc2c1: criterion not met

[Q] Does MEAN CpLDH INHIBITION (%) meet or surpass -30% for COc1cc([C@@H]2c3cc4c(c(O)c3C[C@H]3COC(=O)[C@@H]32)OCO4)cc(OC)c1O ?
[A] criterion met

[Q] Does MEAN CpLDH INHIBITION (%) meet or surpass -30% for N#CCCN(c1ccc(C=O)cc1)S(=O)(=O)c1ccccc1 ?
[A] criterion not met

###

Molecular target: recombinant CpLDH protein (Cryptosporidium parvum, UniProt Q9GT92, F198L/K295E/R251K)
Starred links: 1 amine or outer side, 2 acyl side, 3 side chain; linkers in the order of their positions; H or OH if unused. Positions of bridges follow the written chain, without caps; N, C: chain ends. Non-standard residues stand in square brackets, D forms with d. Residues, ends and D or L forms follow the SMILES beside them. Chains are numbered I, II in the order given. Actinocin(1to9) = Cc1c2oc3c(C)ccc(C(=O)[*:2])c3nc-2c(C(=O)[*:1])c(N)c1=O; NMeV = CN[C@H](C(=O)O)C(C)C; Sar = CNCC(=O)O
Threshold -40%. MEAN CpLDH INHIBITION (%) below it: true. MEAN CpLDH INHIBITION (%) at it or above: false.

Please review the entries below; each comes with its answer.
- CCCC(=O)OCC1OC(n2ccc(N)nc2=O)C(OC(=O)CCC)C1OC(=O)CCC (stereo not drawn): false
- CO[C@H]1[C@@H](O)[C@@H](C)O[C@H](O[C@H]2[C@H](Oc3cccc4c(O)c5c(=O)oc6ccc(C)c7c(=O)oc(c34)c5c67)O[C@H](C)[C@H](O)[C@@H]2O)[C@@H]1O: false
- COc1ccc(OC)c2nc3c(C(=O)NCCN(C)C)cccc3nc12.Cl: true
- CC[C@H](C)[C@@H]1NC(=O)[C@@H](NC(=O)c2c3nc4c(C(=O)N[C@@H]5C(=O)N[C@@H](C(C)C)C(=O)N6CCC[C@H]6C(=O)N(C)CC(=O)N(C)[C@@H](C(C)C)C(=O)O[C@@H]5C)ccc(C)c4oc-3c(C)c(=O)c2N)[C@@H](C)OC(=O)[C@H](C(C)C)N(C)C(=O)CN(C)C(=O)[C@@H]2CCCN2C1=O [NSC18268] (I: TIP[Sar][NMeV] / II: TVP[Sar][NMeV]; ester I:1-I:C, II:1-II:C; linker I:N-II:N via Actinocin(1to9)): false

[Q] Is -40% strictly greater than the molecule's reported MEAN CpLDH INHIBITION (%)? molecule: C=CCOC1OC(CO[Si](C)(C)C(C)(C)C)C(OCc2ccccc2)C(OCc2ccccc2)C1OCc1ccccc1 (stereo not drawn)
[A] true

[Q] Is -40% strictly greater than the molecule's reported MEAN CpLDH INHIBITION (%)? molecule: NC1N=C(c2ccc(Cl)cc2)C2=C(N1)c1ccccc1CC2 (stereo not drawn)
[A] false

[Q] Is -40% strictly greater than the molecule's reported MEAN CpLDH INHIBITION (%)? molecule: Oc1[nH]c2ccccc2c1N=Nc1nc(-c2ccc(Br)cc2)cs1
[A] false

[Q] Is -40% strictly greater than the molecule's reported MEAN CpLDH INHIBITION (%)? molecule: Cc1c(C(=O)C/C(=N/NC(=O)CC#N)C(N)=O)[n+](=O)c2ccccc2n1[O-]
[A] false

[Q] Is -40% strictly greater than the molecule's reported MEAN CpLDH INHIBITION (%)? molecule: O=C(CC(=O)C(F)(F)F)c1csc2ccccc12
[A] false
